- Tested System: HDAC2 (Homo sapiens)
- Sequence (Q92769 with tags, fused parts or gaps): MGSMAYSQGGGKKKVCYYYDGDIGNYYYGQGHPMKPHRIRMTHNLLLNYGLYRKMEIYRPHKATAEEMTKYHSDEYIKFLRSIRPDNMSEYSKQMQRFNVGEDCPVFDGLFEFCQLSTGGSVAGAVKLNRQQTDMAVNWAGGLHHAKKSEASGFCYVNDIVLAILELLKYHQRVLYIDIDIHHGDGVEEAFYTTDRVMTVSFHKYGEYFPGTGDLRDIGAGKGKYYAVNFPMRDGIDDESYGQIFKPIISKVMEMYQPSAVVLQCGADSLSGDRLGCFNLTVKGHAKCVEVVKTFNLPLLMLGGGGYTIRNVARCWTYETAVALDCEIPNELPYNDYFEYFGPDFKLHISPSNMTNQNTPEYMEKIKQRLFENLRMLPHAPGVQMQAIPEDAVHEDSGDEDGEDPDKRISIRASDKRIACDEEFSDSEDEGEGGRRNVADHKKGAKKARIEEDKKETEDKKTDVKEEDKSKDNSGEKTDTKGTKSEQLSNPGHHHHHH
- Experiment Description: HDAC2 fluorescence inhibition assay (tBoc-Lys(Ac)-AMC)
Assay Readout: IC50

Could you tell me which IC50 is on file for "Nc1ncncc1NC(=O)c1ccc(Cn2cc3ccccc3n2)cc1" ?
≥ 500 nM

Could you tell me which IC50 is on file for "Nc1ccccc1NC(=O)c1ccc(Cn2cc3c(F)cc(F)cc3n2)cc1" ?
50 to 100 nM

Could you tell me which IC50 is on file for "CC(=O)Nc1ccc2c(cnn2Cc2ccc(C(=O)Nc3ccccc3N)s2)c1" ?
50 to 100 nM

Could you tell me which IC50 is on file for "COc1cccc2cn(Cc3ccc(C(=O)Nc4ccccc4N)cc3)nc12" ?
50 to 100 nM
